Just for reference, patent US8541585B2 is where these values come from.

Target: human 5-HT2A receptor (Homo sapiens, UniProt P28223)
Construct: expressed in transfected cells; host or cells: CHO cells (membrane preparation)
Sequence (P28223 whole entry): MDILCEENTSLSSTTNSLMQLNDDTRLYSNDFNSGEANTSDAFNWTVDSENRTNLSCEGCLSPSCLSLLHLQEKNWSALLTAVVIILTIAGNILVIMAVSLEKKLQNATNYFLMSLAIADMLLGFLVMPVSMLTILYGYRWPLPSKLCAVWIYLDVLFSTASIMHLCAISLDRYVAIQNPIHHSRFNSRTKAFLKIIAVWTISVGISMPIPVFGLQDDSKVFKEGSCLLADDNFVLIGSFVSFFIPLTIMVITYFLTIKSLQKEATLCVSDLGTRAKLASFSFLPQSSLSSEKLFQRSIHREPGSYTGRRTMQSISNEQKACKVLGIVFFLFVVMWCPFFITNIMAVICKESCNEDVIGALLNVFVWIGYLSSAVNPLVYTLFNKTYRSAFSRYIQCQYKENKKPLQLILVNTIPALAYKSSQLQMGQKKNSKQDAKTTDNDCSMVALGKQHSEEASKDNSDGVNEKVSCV
Experiment: Serotonin 5-HT2A receptor binding assay ([3H]-ketanserin)
Conditions: 1 nM test drug; [3H]-ketanserin 1 nM; human 5-HT2A receptor-expressing CHO cell membrane; read-out: BINDING INHIBITION RATE (%) 5HT2A 1 nM
Experimental: (2) Serotonin 5-HT2A Receptor Binding Assay 5-HT2A receptor binding assay was performed in reference to a method described by Hirose et al. (Japan. J. Pharmacol., 53, 321-329, 1990). […] The residual radioactivity on the glass fiber filter was measured by a liquid scintillation counter. […]
Observed property: inhibition at 0.001 µM (%)
Just the number in %, nothing appended.

>>> val("O=C(c1ccc(F)cc1)C1CCN(CC[C@@H]2CCCN2C(=O)c2[nH]c3ccccc3c2C(=O)N2CCCCC2)CC1")
7

Entry under test: O=C(c1ccc(F)cc1)C1CCN(CC[C@@H]2CCCN2C(=O)c2cc3ccc(OC(F)(F)F)cc3[nH]2)CC1 . Its inhibition at 0.001 µM was 72

Record O=C(c1ccc(F)cc1)C1CCN(CC[C@@H]2CCCN2C(=O)c2[nH]c3ccccc3c2F)CC1 . Reported inhibition at 0.001 µM: 74

get_value(item= Cc1ccc2cc(C(=O)N3CCC[C@H]3CCN3CCN(c4noc5cc(F)ccc45)CC3)[nH]c2c1 , readout=inhibition at 0.001 µM) returns 41

Value of measured inhibition at 0.001 µM for the entry O=C(c1ccc(F)cc1)C1CCN(CC[C@@H]2CCCN2C(=O)c2[nH]c3cc(OC(F)(F)F)ccc3c2F)CC1 : 56

For record Cc1cccc2cc(C(=O)N3CCC[C@H]3CCN3CCC(C(=O)c4ccc(F)cc4)CC3)[nH]c12 the listed inhibition at 0.001 µM is 46

Note to self: inhibition at 0.001 µM recorded for Cc1ccc2cc(C(=O)N3CCC[C@H]3CCN3CCC(c4c[nH]c5cc(F)ccc45)CC3)[nH]c2c1 was 72

----------
biological target: human 5-HT2A receptor (Homo sapiens); construct: expressed in transfected cells; host or cells: CHO cells (membrane preparation); experiment: Serotonin 5-HT2A receptor binding assay ([3H]-ketanserin); conditions: 1 nM test drug; [3H]-ketanserin 1 nM; human 5-HT2A receptor-expressing CHO cell membrane; read-out: BINDING INHIBITION RATE (%) 5HT2A 1 nM
Observed property: inhibition at 0.001 µM (%)
Give just the number in %; leave the unit off.

Known results for compounds:
>>> val("O=C(c1ccc(F)cc1)C1CCN(CC[C@@H]2CCCN2C(=O)c2cc(-c3ccccc3)n[nH]2)CC1")
76
>>> val("Cc1ccc2cc(C(=O)N3CCC[C@H]3CCN3CCC(n4ccc5ccc(F)cc54)CC3)[nH]c2c1")
37
>>> val("Cc1ccc2cc(C(=O)N3CCC[C@H]3CCN3CCC(c4noc5cc(F)ccc45)CC3)[nH]c2c1")
61

Attention now turns to another entry.
The recorded inhibition at 0.001 µM for entry COc1cc2cc(C(=O)N3CCC[C@H]3CCN3CCC(C(=O)c4ccc(F)cc4)CC3)[nH]c2cn1 equals 66

----------
target: human 5-HT2A receptor (Homo sapiens); construct: expressed in transfected cells; host or cells: CHO cells (membrane preparation); experiment: Serotonin 5-HT2A receptor binding assay ([3H]-ketanserin); details: 10 nM test drug; [3H]-ketanserin 1 nM; human 5-HT2A receptor-expressing CHO cell membrane; read-out: BINDING INHIBITION RATE (%) 5HT2A 10 nM
// values below are reported inhibition at 0.01 µM
Provide the reading as a plain figure in %.

Study these solved cases before continuing.
>>> val("COc1ccc2[nH]c(C(=O)N3CCC[C@H]3CCN3CCC(c4cn(-c5ccc(F)cc5)c5ccc(Cl)cc45)CC3)cc2c1 [Example 60]")
78
>>> val("COc1ccc2[nH]c(C(=O)N3C[C@@](C)(O)C[C@H]3CCN3CCC(c4c[nH]c5ccccc45)CC3)cc2c1 [Example 38]")
97
>>> val("CCOCCO[C@@H]1C[C@@H](CCN2CCC(c3c[nH]c4ccccc34)CC2)N(C(=O)c2cc3ccc(OC)cc3[nH]2)C1 [Example 37]")
91
>>> val("O=C(/C=C/c1ccc2c(c1)OCO2)N1CCCC[C@H]1CCN1CCN(c2cccc3ccccc23)CC1 [Example 9]")
94
>>> val("COc1ccc2cc(C(=O)N3CCCC[C@H]3CCN3CCC(c4c[nH]c5ccccc45)CC3)[nH]c2c1 [Example 31]")
96

Looking up O=C(/C=C/c1ccc2c(c1)OCO2)N1CC[C@H]1CCN1CCC(c2noc3cc(F)ccc23)CC1 [Example 18] , I found its inhibition at 0.01 µM recorded as 100

Summary for this compound, O=C(/C=C/c1ccc2c(c1)OCO2)N1CCC[C@H](CN2CCC(c3c[nH]c4ccccc34)CC2)C1 [Example 34] : inhibition at 0.01 µM is 98

----------
inhibition at 0.1 µM for assorted compounds
target: human 5-HT6 receptor (Homo sapiens, UniProt P50406); construct: expressed in transfected cells; host or cells: CHO cells (membrane preparation); assay: Serotonin 5-HT6 receptor binding assay ([3H]-clozapine); details: 100 nM test drug; [3H]-clozapine 2 nM; human 5-HT6 receptor-expressing CHO cell membrane; read-out: BINDING INHIBITION RATE (%) 5HT6 100 nM
Sequence (P50406 whole entry): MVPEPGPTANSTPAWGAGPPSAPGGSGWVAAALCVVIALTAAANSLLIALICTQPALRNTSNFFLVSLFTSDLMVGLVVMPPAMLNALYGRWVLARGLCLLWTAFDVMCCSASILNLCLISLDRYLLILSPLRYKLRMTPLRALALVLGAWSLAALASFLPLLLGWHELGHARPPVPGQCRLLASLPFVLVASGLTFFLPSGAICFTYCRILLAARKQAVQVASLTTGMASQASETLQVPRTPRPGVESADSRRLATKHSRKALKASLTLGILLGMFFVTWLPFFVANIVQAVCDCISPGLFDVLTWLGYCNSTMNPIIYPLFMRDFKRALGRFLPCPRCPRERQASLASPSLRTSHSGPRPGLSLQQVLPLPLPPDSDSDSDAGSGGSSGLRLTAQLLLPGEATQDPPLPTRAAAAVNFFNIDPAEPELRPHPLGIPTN

>>> val("O=C(c1cccc(-c2ccccc2)c1)N1CCC[C@@H](CCN2CCN(c3nsc4ccccc34)CC2)C1 [Example 57]")
"86%"
>>> val("O=C(c1ccc(F)cc1)C1CCN(CC[C@@H]2CCCN2C(=O)c2[nH]c3ccccc3c2-c2ccccc2)CC1 [Example 47]")
"94%"
>>> val("COc1ccc2[nH]c(C(=O)N3C[C@@](C)(O)C[C@H]3CCN3CCC(c4c[nH]c5ccccc45)CC3)cc2c1 [Example 38]")
"86%"

# compound O=C(c1cc2cc(O)ccc2[nH]1)N1CCOC[C@H]1CCN1CCC(c2c[nH]c3ccccc23)CC1 [Example 41] ; its inhibition at 0.1 µM = 78%

For this compound ( Cc1ccc2cc(C(=O)N3[C@H](CCN4CCC(C(=O)c5ccc(F)cc5)CC4)CC[C@@H]3C)[nH]c2c1 [Example 166] ), measured inhibition at 0.1 µM is 97%

inhibition at 0.1 µM measured on O=C(/C=C/c1ccc2c(c1)OCO2)N1CCC[C@H](CN2CCC(c3coc4ccccc34)CC2)C1 [Example 29] = 85%

Notebook: O=C(c1ccc(F)cc1)C1CCN(CC[C@@H]2CCCN2C(=O)c2[nH]c3cc(F)ccc3c2F)CC1 [Example 163] , inhibition at 0.1 µM read as 95%

----------
Property: inhibition at 0.1 µM; scope: individual compounds
target: human α1D receptor (Homo sapiens); construct: expressed in transfected cells; host or cells: CHO cells (membrane preparation); assay: Adrenaline α1D receptor binding assay ([3H]-prazosin); conditions: 100 nM test drug; [3H]-prazosin 0.6 nM; human α1D receptor-expressing CHO cell membrane; read-out: BINDING INHIBITION RATE (%) α1D 100 nM
Sequence (P25100 whole entry): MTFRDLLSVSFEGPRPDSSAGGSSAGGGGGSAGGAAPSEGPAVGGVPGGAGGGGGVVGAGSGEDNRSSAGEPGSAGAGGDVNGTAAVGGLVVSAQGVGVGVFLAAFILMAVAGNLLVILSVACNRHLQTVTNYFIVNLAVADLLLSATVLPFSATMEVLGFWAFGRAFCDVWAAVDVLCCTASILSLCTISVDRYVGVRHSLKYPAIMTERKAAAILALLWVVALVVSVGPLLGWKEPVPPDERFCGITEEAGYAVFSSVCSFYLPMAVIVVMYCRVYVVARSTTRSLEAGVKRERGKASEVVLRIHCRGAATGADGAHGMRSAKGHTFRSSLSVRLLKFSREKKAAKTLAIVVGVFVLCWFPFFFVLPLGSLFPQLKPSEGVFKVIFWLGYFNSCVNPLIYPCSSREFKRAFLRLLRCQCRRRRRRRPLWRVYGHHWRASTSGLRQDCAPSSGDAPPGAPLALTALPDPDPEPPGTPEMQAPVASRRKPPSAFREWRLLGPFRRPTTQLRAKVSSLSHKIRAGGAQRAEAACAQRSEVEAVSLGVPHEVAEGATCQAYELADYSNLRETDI
Could you give me the number in %? Just the number is fine.

Consider the worked cases shown below.
>>> val("Cc1ccc2cc(C(=O)N3CCC[C@H]3CCN3CCC(c4c[nH]c5cc(F)ccc45)CC3)[nH]c2c1")
70
>>> val("O=C(/C=C/c1ccc2c(c1)OCO2)N1CCC[C@H](CCN2CCC(c3noc4cc(F)ccc34)CC2)C1")
89
>>> val("O=C(c1nc2cc(Cl)ccc2[nH]1)N1CCCC[C@H]1CCN1CCC(c2c[nH]c3ccccc23)CC1")
97

Here is the next item to consider.
Noted for Cc1ccc2cc(C(=O)N3CCC[C@H]3CCN3CCC(c4noc5cc(F)ccc45)CC3)[nH]c2c1 : its inhibition at 0.1 µM reads 71

----------
target: human D2L receptor (Homo sapiens); test: Dopamine D2L receptor binding assay ([3H]-spiperone); details: 10 nM test drug; [3H]-spiperone 0.5 nM; human D2L receptor-expressing CHO cell membrane; read-out: BINDING INHIBITION RATE (%) D2L 10 nM
Sequence (P14416 whole entry): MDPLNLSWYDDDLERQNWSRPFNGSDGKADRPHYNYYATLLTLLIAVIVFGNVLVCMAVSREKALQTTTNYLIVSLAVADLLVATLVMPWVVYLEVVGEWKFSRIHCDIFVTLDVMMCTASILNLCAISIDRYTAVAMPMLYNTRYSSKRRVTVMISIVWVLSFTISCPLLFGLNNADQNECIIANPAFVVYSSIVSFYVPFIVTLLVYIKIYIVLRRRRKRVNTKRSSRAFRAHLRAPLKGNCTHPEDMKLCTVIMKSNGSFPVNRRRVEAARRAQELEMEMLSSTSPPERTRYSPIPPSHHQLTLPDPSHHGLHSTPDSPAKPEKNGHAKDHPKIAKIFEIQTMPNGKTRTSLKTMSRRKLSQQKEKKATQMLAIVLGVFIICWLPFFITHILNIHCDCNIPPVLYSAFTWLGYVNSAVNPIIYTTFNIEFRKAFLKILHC
Observed property: inhibition at 0.01 µM (%)
Express your answer in %, writing the number without its unit.

Illustrative cases are given below, each with its answer.
>>> val("Cc1ccc2[nH]c(C(=O)N3CCC[C@H]3CCN3CCC(c4coc5ccccc45)CC3)cc2c1")
76
>>> val("COc1ccc2[nH]c(C(=O)N3CCCC[C@H]3CCN3CCC(c4coc5ccccc45)CC3)cc2c1")
77

Form: compound = COc1cc2cc(C(=O)N3CCC[C@H]3CCN3CCC(C(=O)c4ccc(F)cc4)CC3)[nH]c2cn1 ; inhibition at 0.01 µM = 71

Note to self: inhibition at 0.01 µM recorded for COc1ccc2[nH]c(C(=O)N3CCCC[C@H]3CCN3CCC(c4coc5cc(F)ccc45)CC3)cc2c1 was 92
